Hi there, I'd appreciate the recorded sensor-assay potency score (higher = more potent) for every entry that follows.
# TARGET ENTITY: NGDN; further: reference of the scale not given here
# ASSAY PROCEDURE: pooled miR-30 sensor sort-seq; sequence = guide strand
# PROTOCOL CONDITIONS: shRNA

Record `TTCTAGACGCTTCTTCTCCCGC` . Reported sensor-assay potency score (higher = more potent): -0.831

Record `TTGCTCATCATATTGCTGGGAT` . Reported sensor-assay potency score (higher = more potent): 0.439

Record `TTTCTGTAGGATAGGCACCAGC` . Reported sensor-assay potency score (higher = more potent): -1.35

Record `TGTCACTGCAGTCTTGATCAGC` . Reported sensor-assay potency score (higher = more potent): -0.949

Record `ATATTTCTTAGACACTCCCTTC` . Reported sensor-assay potency score (higher = more potent): -0.888

Hello, the source for this data is the OligoGym collection, in case you need it.
